# target-or-test-system: NLRP3 inflammasome (Mus musculus, UniProt Q8R4B8)
# Construct: endogenous in cells
# Sequence (Q8R4B8 whole entry): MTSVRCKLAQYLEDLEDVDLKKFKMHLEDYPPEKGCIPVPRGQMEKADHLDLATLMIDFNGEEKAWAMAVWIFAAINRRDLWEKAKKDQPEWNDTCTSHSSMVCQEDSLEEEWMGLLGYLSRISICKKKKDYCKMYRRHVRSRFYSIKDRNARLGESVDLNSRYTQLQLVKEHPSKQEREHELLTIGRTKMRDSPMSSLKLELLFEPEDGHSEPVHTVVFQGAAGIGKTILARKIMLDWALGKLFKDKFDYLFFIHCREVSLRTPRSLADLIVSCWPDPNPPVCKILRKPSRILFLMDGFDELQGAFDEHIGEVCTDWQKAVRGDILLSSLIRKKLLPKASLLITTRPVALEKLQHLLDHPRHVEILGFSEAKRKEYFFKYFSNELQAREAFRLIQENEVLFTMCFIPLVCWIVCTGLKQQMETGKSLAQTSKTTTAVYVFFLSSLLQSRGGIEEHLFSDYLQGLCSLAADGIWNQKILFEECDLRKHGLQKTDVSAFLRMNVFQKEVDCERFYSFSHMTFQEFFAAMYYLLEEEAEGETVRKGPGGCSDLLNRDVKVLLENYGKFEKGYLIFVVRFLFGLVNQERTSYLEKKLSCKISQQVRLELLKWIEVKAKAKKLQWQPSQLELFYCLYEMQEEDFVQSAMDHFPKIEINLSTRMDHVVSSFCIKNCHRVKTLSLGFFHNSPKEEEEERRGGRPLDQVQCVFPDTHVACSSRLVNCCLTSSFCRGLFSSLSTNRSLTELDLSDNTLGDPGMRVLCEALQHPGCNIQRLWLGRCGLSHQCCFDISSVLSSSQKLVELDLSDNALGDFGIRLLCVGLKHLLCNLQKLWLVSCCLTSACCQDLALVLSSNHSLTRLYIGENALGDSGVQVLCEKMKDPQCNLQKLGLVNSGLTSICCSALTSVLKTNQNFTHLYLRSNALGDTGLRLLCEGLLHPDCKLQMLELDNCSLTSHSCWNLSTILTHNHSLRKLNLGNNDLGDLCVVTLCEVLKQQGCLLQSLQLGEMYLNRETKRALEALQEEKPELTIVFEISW
# assay-summary: Inhibition of LPS and ATP induced NLRP3 inflammasome activation in BMDMs (IL-1β level)
# condition-label: read-out: IC50, inhibitory effect on activation of NLRP3 inflammasome
pIC50: −log10 of the molar value.
Catalogue of pIC50 values

// worked examples, pIC50 included
molecule=C=C1C(=O)O[C@H]2[C@H]1CC[C@@]1(C)C[C@]13C[C@@H](O)[C@@](C)(O)[C@H]23 observable=pIC50 observed_measurement="> 7.40"
molecule="CN(C)C[C@@H]1C(=O)O[C@H]2[C@H]1CC[C@@]1(C)C[C@]13CC[C@@](C)(O)[C@H]23 [Compound 22]" observable=pIC50 observed_measurement="7.10 to 7.40"
molecule=C=C1C(=O)O[C@H]2[C@H]1CC[C@@]1(C)C[C@]13C[C@@H](O)[C@@](C)(OC)[C@H]23 observable=pIC50 observed_measurement="> 7.40"

// next entry
### Prompt For "CN(C)C[C@@H]1C(=O)O[C@H]2[C@H]1CC[C@@]1(C)C[C@]13C[C@@H](O)[C@@](C)(O)[C@H]23" , write its pIC50.
### Response 7.10 to 7.40
